Where these numbers come from: the supplement of paper PMC3937590

Parameter -log10 GI50: see the listing below.
Test system: MDAMB175VII
Test: -log10 GI50 (growth inhibition 50%) (-log10(M)); higher = more potent growth inhibition
Provide a numeric answer; units are not to be included.

Challenge: Hello, I am looking for reported -log10 GI50 with MDAMB175VII for COC(=O)Nc1nc2cc(C(=O)c3ccccc3)ccc2[nH]1 [Mebendazole] . Could you help?
Response given: 6.6

Challenge: Hello, I am looking for reported -log10 GI50 with MDAMB175VII for CCNCCCNC/C=C\CNCCCNCC . Could you help?
Response given: 3.21

Challenge: Hello, I am looking for reported -log10 GI50 with MDAMB175VII for CC(C)[C@H](CO)Nc1nc(Nc2cccc(Cl)c2)c2ncn(C(C)C)c2n1 [Purvalanol A] . Could you help?
Response given: 4.12
